pIC50: −log10 of the molar value.
Reported property: pIC50

Task item: Which pIC50 is reported with Fibroblast growth factor receptor 1 (Homo sapiens) for this entry: COC[C@@H](C)Nc1cc(NC(=O)N2CCCc3cc(CN4CC[C@@H](OC)C4=O)c(C=O)nc32)ncc1C#N ?
Reply: < 5.00
